# TARGET: Glucocorticoid receptor (Rattus norvegicus)
# Construct: Thymus cytosol of the adrenalectomized rat; from tissue; host or cells: thymus cytosol of adrenalectomized rat
# Sequence (P06536 whole entry): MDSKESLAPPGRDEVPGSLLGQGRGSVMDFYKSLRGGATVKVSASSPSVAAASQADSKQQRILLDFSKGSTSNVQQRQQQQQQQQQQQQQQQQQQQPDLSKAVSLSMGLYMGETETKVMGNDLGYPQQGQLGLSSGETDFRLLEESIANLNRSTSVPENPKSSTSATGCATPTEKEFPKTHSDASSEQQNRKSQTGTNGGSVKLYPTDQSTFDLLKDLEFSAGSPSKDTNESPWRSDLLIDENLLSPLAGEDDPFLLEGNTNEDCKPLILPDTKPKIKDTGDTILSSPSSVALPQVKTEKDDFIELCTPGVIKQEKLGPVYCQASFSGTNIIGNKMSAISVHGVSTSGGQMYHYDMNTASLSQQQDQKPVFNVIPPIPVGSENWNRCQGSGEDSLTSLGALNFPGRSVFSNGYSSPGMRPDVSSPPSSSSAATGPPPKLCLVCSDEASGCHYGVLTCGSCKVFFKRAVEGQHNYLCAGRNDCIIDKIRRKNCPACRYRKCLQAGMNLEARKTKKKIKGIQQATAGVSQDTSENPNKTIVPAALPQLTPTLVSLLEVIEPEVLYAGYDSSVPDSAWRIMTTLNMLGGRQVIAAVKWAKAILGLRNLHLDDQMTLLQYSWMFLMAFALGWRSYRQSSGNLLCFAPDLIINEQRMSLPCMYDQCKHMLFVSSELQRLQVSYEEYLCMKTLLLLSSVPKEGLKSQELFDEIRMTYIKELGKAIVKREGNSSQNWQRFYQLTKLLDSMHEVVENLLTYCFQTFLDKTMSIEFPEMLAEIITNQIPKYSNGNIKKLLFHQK
# METHOD DESCRIPTION: Receptor binding affinity, glucocorticoid receptor (competitive binding, 3H-dexamethasone)
# CONDITIONS USED: Dexamethasone = 100%; thymus cytosol of adrenalectomized rat
API: label(entry) gives Met if the entry's GR relative molar binding affinity (RBA) is strictly smaller than 10%; on equality or larger values it gives Not met.

These solved cases illustrate the format of a correct answer.
INSERT INTO measurements (compound, class) VALUES
  ('CC1(O)CCC2C3CCC4=C(Br)C(=O)CCC4=C3C(c3ccc(C=NO)cc3)CC21C (stereo not shown)', 'Met'),
  ('CC12CC(c3ccc(C=NO)cc3)C3=C4CCC(=O)C=C4CCC3C1C=CC2O (stereo not shown)', 'Met'),
  ('CC1(O)CCC2C3CCC4=CC(=O)CCC4=C3C(c3ccc(C=NO)cc3)CC21C (stereo not shown)', 'Not met'),
  ('CCNC(=O)O/N=C/c1ccc([C@H]2C[C@@]3(C)[C@@H](CC[C@]3(C)O)[C@@H]3CCC4=CC(=O)CCC4=C32)cc1', 'Not met'),
  ('CCNC(=O)O[C@H]1CC[C@H]2[C@@H]3CCC4=CC(=O)CCC4=C3[C@@H](c3ccc(/C=N/O)cc3)C[C@]12C', 'Not met'),
  ('C[C@]12C[C@H](c3ccc(/C=N/O)cc3)C3=C4CCC(=O)C=C4CC[C@H]3[C@@H]1CC[C@@H]2O', 'Met');

Alright, here's another compound for you.
Exercise: Determine whether this compound shows GR relative molar binding affinity (RBA) lower than 10% (ties excluded): CCO[C@H]1CC[C@H]2[C@@H]3CCC4=CC(=O)CCC4=C3[C@@H](c3ccc(/C=N/O)cc3)C[C@]12C
Key: Not met

* * *

# TARGET: Androgen receptor (Rattus norvegicus, UniProt P15207)
# Construct: Prostate cytosol of the castrated rat; from tissue; host or cells: prostate cytosol of castrated rat
# METHOD DESCRIPTION: Receptor binding affinity, androgen receptor (competitive binding, 3H-metribolone)
# CONDITIONS USED: reference RU 1881 (metribolone); prostate cytosol of castrated rat
VALUE TYPE: AR relative molar binding affinity (RBA) a) against RU 1881

INSERT INTO assay_data (compound, recorded_result) VALUES
  ('CCNC(=O)O/N=C/c1ccc([C@H]2C[C@@]3(C)[C@@H](CC[C@@]3(O)CO)[C@@H]3CCC4=CC(=O)CCC4=C32)cc1 [Example 20]', 'a) 4%'),
  ('CC(=O)O[C@H]1CC[C@H]2[C@@H]3CCC4=C(Br)C(=O)CCC4=C3[C@@H](c3ccc(/C=N/O)cc3)C[C@]12C [Example 13]', 'a) 6%');

* * *

# TARGET: Androgen receptor (Rattus norvegicus)
# Construct: Prostate cytosol of the castrated rat; from tissue; host or cells: prostate cytosol of castrated rat
# Sequence (P15207 1-902): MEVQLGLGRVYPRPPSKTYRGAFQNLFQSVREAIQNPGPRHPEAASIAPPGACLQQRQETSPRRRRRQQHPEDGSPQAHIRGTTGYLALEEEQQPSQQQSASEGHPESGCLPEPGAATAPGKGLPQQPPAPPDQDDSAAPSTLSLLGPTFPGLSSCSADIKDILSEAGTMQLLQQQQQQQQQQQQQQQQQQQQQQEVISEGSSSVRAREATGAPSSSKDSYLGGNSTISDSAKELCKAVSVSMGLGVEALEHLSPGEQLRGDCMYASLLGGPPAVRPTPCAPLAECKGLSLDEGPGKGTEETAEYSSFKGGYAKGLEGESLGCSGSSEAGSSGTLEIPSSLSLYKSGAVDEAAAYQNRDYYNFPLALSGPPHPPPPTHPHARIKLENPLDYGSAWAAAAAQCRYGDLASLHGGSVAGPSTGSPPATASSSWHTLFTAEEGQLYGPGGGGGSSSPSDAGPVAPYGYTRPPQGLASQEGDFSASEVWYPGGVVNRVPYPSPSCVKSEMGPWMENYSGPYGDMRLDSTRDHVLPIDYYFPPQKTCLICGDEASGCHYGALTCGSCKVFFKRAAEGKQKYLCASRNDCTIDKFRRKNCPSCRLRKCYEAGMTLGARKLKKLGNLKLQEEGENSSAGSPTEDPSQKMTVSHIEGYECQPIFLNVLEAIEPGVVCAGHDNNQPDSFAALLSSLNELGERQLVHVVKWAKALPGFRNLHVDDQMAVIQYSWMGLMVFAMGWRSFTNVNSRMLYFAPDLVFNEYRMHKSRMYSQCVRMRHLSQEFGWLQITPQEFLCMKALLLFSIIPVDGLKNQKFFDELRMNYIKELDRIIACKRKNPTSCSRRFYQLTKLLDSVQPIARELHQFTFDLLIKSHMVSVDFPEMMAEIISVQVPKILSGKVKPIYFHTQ
# METHOD DESCRIPTION: Receptor binding affinity, androgen receptor (competitive binding, 3H-metribolone)
# CONDITIONS USED: reference dihydrotestosterone; prostate cytosol of castrated rat
VALUE TYPE: AR relative molar binding affinity (RBA) b) against dihydrotestosterone (DHT)

INSERT INTO assay_data (compound, recorded_result) VALUES
  ('CCNC(=O)O/N=C/c1ccc([C@H]2C[C@@]3(C)[C@@H](CC[C@@]3(O)CO)[C@@H]3CCC4=CC(=O)CCC4=C32)cc1', 'b) 7%'),
  ('CC(=O)O[C@H]1CC[C@H]2[C@@H]3CCC4=C(Br)C(=O)CCC4=C3[C@@H](c3ccc(/C=N/O)cc3)C[C@]12C', 'b) 10%'),
  ('CC1(O)CCC2C3CCC4=CC(=O)CCC4=C3C(c3ccc(C=NO)cc3)CC21C (centres unmarked)', 'b) 23%'),
  ('CC12CC(c3ccc(C=NO)cc3)C3=C4CCC(=O)C=C4CCC3C1CCC2OCc1ccccc1 (centres unmarked)', 'b) 3%'),
  ('CCNC(=O)O/N=C/c1ccc([C@H]2C[C@@]3(C)[C@@H](CC[C@]3(C)O)[C@@H]3CCC4=CC(=O)CCC4=C32)cc1', 'b) 23%');

Next up:
// AR relative molar binding affinity (RBA) b) against dihydrotestosterone (DHT) (Androgen receptor (Rattus norvegicus)) for CC(=O)O/N=C/c1ccc([C@H]2C[C@]3(C)[C@@H](OC(C)=O)CC[C@H]3[C@@H]3CCC4=C(Br)C(=O)CCC4=C32)cc1 = b) 10%

* * *

# TARGET: Androgen receptor (Rattus norvegicus)
# Construct: Prostate cytosol of the castrated rat; from tissue; host or cells: prostate cytosol of castrated rat
# METHOD DESCRIPTION: Receptor binding affinity, androgen receptor (competitive binding, 3H-metribolone)
# CONDITIONS USED: reference RU 1881 (metribolone); prostate cytosol of castrated rat
VALUE TYPE: AR relative molar binding affinity (RBA) a) against RU 1881

INSERT INTO results (compound, recorded_result) VALUES
  ('CC12CC(c3ccc(C=NO)cc3)C3=C4CCC(=O)C(Br)=C4CCC3C1CCC2O (stereo not shown)', 'a) 9%');

* * *

# TARGET: Progesterone receptor (Oryctolagus cuniculus)
# Construct: Uterus cytosol of the estradiol-primed rabbit; from tissue; host or cells: uterus cytosol of estradiol-primed rabbit
# Sequence (P06186 whole entry): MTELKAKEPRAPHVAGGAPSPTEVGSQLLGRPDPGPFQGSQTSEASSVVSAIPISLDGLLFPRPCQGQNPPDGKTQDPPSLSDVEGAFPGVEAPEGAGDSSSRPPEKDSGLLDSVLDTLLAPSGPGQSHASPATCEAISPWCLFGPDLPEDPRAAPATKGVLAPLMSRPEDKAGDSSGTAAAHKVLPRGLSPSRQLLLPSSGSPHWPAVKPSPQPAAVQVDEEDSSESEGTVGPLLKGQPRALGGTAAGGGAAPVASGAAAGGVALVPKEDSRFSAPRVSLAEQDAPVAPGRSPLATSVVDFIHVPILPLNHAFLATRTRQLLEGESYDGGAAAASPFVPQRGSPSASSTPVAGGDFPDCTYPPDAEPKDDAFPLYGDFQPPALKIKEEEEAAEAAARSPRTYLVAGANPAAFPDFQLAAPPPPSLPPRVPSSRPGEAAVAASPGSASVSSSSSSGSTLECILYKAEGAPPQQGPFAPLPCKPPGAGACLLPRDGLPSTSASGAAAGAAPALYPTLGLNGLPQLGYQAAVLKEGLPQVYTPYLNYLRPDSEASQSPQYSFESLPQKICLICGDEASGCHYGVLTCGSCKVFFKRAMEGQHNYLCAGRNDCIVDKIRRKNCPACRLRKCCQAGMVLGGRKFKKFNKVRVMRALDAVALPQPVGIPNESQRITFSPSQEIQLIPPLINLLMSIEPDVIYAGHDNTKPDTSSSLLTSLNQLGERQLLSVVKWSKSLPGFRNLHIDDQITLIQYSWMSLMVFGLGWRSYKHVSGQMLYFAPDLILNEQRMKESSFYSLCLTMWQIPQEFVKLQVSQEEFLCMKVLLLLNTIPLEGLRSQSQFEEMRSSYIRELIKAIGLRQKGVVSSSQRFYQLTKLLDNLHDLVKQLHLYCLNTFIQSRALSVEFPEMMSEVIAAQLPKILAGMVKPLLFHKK
# METHOD DESCRIPTION: Receptor binding affinity, progesterone receptor (competitive binding, 3H-ORG 2058)
# CONDITIONS USED: Progesterone = 100%; uterus cytosol of estradiol-primed rabbit
Response field class: enum, chosen by comparing PR relative molar binding affinity (RBA) against lower band (below 30%), central band (30% to below 90%), upper band (90% or more)

Illustrative cases are given below, each with its answer.
INSERT INTO results (compound, target, class) VALUES
  ('CC12CC(c3ccc(C=NO)cc3)C3=C4CCC(=O)C(Br)=C4CCC3C1CCC2(O)C(F)(F)F (stereo not drawn) [Example 8]', 'Progesterone receptor (Oryctolagus cuniculus)', 'central band'),
  ('CO[C@H]1CC[C@H]2[C@@H]3CCC4=CC(=O)CCC4=C3[C@@H](c3ccc(/C=N/O)cc3)C[C@]12C [Example 5]', 'Progesterone receptor (Oryctolagus cuniculus)', 'upper band'),
  ('CC(=O)OC1CCC2C3CCC4=CC(=O)CCC4=C3C(c3ccc(C=NO)cc3)CC12C (stereo not drawn) [Example 3]', 'Progesterone receptor (Oryctolagus cuniculus)', 'lower band');

Exercise: Which PR relative molar binding affinity (RBA) band matches CCO[C@H]1CC[C@H]2[C@@H]3CCC4=CC(=O)CCC4=C3[C@@H](c3ccc(/C=N/O)cc3)C[C@]12C [Example 15] ?
Key: upper band

Exercise: Which class does C[C@]12C[C@H](c3ccc(/C=N/O)cc3)C3=C4CCC(=O)C=C4CC[C@H]3[C@@H]1CC[C@@H]2O [Example 1] fall in?
Key: lower band

Exercise: Category of CC(=O)O[C@H]1CC[C@H]2[C@@H]3CCC4=C(Br)C(=O)CCC4=C3[C@@H](c3ccc(/C=N/O)cc3)C[C@]12C [Example 13] , please.
Key: central band

Exercise: Could you place CC12CC(c3ccc(C=NO)cc3)C3=C4CCC(=O)C(Br)=C4CCC3C1CCC2O (stereo not drawn) [Example 19] in its proper category? Many thanks.
Key: central band

Exercise: Classify this compound: CC12CC(c3ccc(C=NO)cc3)C3=C4CCC(=O)C=C4CCC3C1CCC2OCc1ccccc1 (stereo not drawn) [Example 17]
Key: central band
